For each of the molecules below, state its viability, T/C.
- System: LG0567-F671-PDC KRAS tumor spheroid viability;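 also: drug exposure lasted seven days after spheroids formed for three days; 100% = DMSO vehicle control viability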
- Assay comment: Anticancer human tumor LG0567-F671-PDC patient-derived lung adenocarcinoma cell line growth inhibition [KRAS2]
- Experimental conditions: second compound 10 µM; first compound 1 µM; stronger effect = lower value; spheroids with HUVEC and MSC

Some solved entries appear below for comparison.
Molecule | viability, T/C
Cn1nccc1Nc1nccc(-c2cc3c(s2)C(C)(C)N(CCN2CCOCC2)C3=O)n1 + COc1cc2nc(C)nc(NC(C)c3cc(N)cc(C(F)(F)F)c3)c2cc1OC1CCOC1 | 45.4%
CCN1CCN(Cc2ccc(Nc3ncc(F)c(-c4cc(F)c5nc(C)n(C(C)C)c5c4)n3)nc2)CC1 + CNCc1ccccc1-c1csc(C(C)Nc2nc(C)nc3cc(OC)c(OC)cc23)c1 | 0.18%
CC(C)NCC(C(=O)N1CCN(c2ncnc3c2C(C)CC3O)CC1)c1ccc(Cl)cc1 (stereo not given) + CC1OCC2(CCN(c3cnc(Sc4ccnc(N)c4Cl)c(N)n3)CC2)C1N | 3.11%

// for each molecule in input: emit viability, T/C
1. O=C(c1cc(Cc2n[nH]c(=O)c3ccccc23)ccc1F)N1CCN(C(=O)C2CC2)CC1 + C=CC(=O)N1CCN(c2nc(=O)n(-c3c(C)ccnc3C(C)C)c3nc(-c4c(O)cccc4F)c(F)cc23)C(C)C1
2. CC1OCC2(CCN(c3cnc(Sc4ccnc(N)c4Cl)c(N)n3)CC2)C1N (stereo not given) + COc1cc2nc(C)nc(NC(C)c3cc(N)cc(C(F)(F)F)c3)c2cc1OC1CCOC1

Reply text:
30%
20.2%
